test system: E. coli GC 2272; test: MIC, broth microdilution; conditions: Escherichia coli, GC2272, E. coli GC 2272; Water pre-incubation
I'd be grateful if you could share measured MIC for these entries.
Entry format: amount then unit.

CCCCN(CC(=O)Nc1cc(N(C)C)c2c(c1O)C(=O)C1=C(O)[C@]3(O)C(=O)C(C(N)=O)=C(O)[C@@H](N(C)C)C3CC1C2)C(=O)OCOC(=O)C(C)C (stereo partly drawn) [Example 1]	16 µg/mL
CCCCN(CC(=O)Nc1cc(N(C)C)c2c(c1O)C(=O)C1=C(O)[C@]3(O)C(=O)C(C(N)=O)=C(O)[C@@H](N(C)C)[C@@H]3C[C@@H]1C2)C(=O)OCOC(=O)Cc1ccccc1 [Example 12]	16 µg/mL

Exercise: I am curious: what MIC value has been reported for CCCN(CC(=O)Nc1cc(N(C)C)c2c(c1O)C(=O)C1=C(O)[C@]3(O)C(=O)C(C(N)=O)=C(O)[C@@H](N(C)C)[C@@H]3C[C@@H]1C2)C(=O)OCOC(=O)c1ccc(F)cc1 [Example 8] ?
Key: 32 µg/mL
